pIC50 listing for selected compounds.
SYSTEM NAME: alpha1 -adrenoceptors
METHOD SUMMARY: [^3 H]-prazosin binding assay (affinity for alpha1-adrenoceptors)
CONDITION SUMMARY: rat brain membranes, 0.2 nM [^3 H]-prazosin, 60 minutes at 25°
Protocol: The [^3 H]-prazosin binding assay was carried out according to the method described by Timmermans, P. B. M. W. M., Schoop, A. M. C., and Van Zwieten, P. A.: Biochem Pharmacol., 31, 899-905, 1982 (1). The reaction mixture contained partially purified rat brain membranes (source of alpha1 -adrenoceptors), 0.2 nM [^3 H]-prazosin with or without potential displacer in Tris buffer. […] Receptor-bound [^3 H]-prazosin trapped in the filter was quantitated by scintillation counting. […]
Would you please state pIC50, meaning minus log10 of the concentration in mol/L, as a bare number?

>  <COMPOUND>
COC(=O)C1=C(C)NC(C)=C([N+](=O)[O-])C1c1ccccc1OCCN1CCN(c2ncccn2)CC1 (stereo not drawn) [Example 154]

>  <SYSTEM NAME>
alpha1 -adrenoceptors

>  <pIC50>
5.03

$$$$
>  <COMPOUND>
COC(=O)C1=C(C)NC(C)=C([N+](=O)[O-])C1c1cccc(OCCCCN2CCN(c3ccccc3OC)CC2)c1[N+](=O)[O-] (stereo not drawn) [Example 150]

>  <SYSTEM NAME>
alpha1 -adrenoceptors

>  <pIC50>
6.66

$$$$
>  <COMPOUND>
CCOc1cccc(C2C(C(=O)OC)=C(C)NC(C)=C2[N+](=O)[O-])c1OCCCCCN1CCN(c2ccccc2OC)CC1 (stereo not drawn) [Example 112]

>  <SYSTEM NAME>
alpha1 -adrenoceptors

>  <pIC50>
6.74

$$$$

Shifting focus to the compound that follows.
Input line: Checklist item: pIC50 tested on alpha1 -adrenoceptors, entry COc1ccccc1N1CCN(CCCCOc2ccccc2C2C(C(=O)OC(C)C)=C(C)NC(C)=C2[N+](=O)[O-])CC1 (stereo not drawn) [Example 133] , value?
Output line: 6.12
